Source listed as ChEMBL document CHEMBL3509421.

Experiment: Mean minimum Tmax value of diclofenac potassium following oral dosing of Cataflam 50 mf tablet in healthy human
Type: ADME, organism-based
Set-up: dietary status Fed, dose 50 mg, dosed compound id 2.46815e+06, dosed compound name Diclofenac potassium, gender Mixed, regimen Single, route oral, study doses 50 mg
Settings: both, plasma, 50 mg, read-out: Minimum Tmax
property-name: Tmax (min)
Enter your answer as a number in min; do not include the unit.

Fill in: Tmax of O=C(O)Cc1ccccc1Nc1c(Cl)cccc1Cl is ___ 19.8

###

Experiment: Median tmax of diclofenac following single oral dosing of 35 mg Zorvolex capsule in healthy human
Type: ADME, organism-based
Design: dietary status Fasting, dose 35 mg, dosed compound id 2.46815e+06, dosed compound name Diclofenac, gender Mixed, regimen Single, route oral
Settings: both, plasma, read-out: Median Tmax
property-name: Tmax (h)
Enter your answer as a number in h; do not include the unit.

Fill in: Tmax of O=C(O)Cc1ccccc1Nc1c(Cl)cccc1Cl is ___ 1

###

Assay: Mean maximum Tmax value of diclofenac potassium following oral dosing of PRO-513 50 mg sachet in healthy human
Assay type: ADME, organism-based
Parameters: dietary status Fasting, dose 50 mg, dosed compound id 2.46815e+06, dosed compound name Diclofenac potassium, gender Mixed, regimen Single, route oral, study doses 50 mg
Details: both, plasma, read-out: Maximum Tmax
property-name: Tmax (min)
Enter your answer as a number in min; do not include the unit.

Fill in: Tmax of O=C(O)Cc1ccccc1Nc1c(Cl)cccc1Cl [DICLOFENAC] is ___ 40.2

###

Assay: Median tmax of diclofenac following single oral dosing of 50 mg Cataflam tablet in healthy human
Assay type: ADME, organism-based
Parameters: dietary status Fed, dose 50 mg, dosed compound id 2.46815e+06, dosed compound name Diclofenac potassium, gender Mixed, regimen Single, route oral
Settings: both, plasma, read-out: Median Tmax
property-name: Tmax (h)
Enter your answer as a number in h; do not include the unit.

Fill in: Tmax of O=C(O)Cc1ccccc1Nc1c(Cl)cccc1Cl is ___ 2.33

###

Assay: Mean Tmax of diclofenac following single oral dosing of 25 mg diclofenac potassium soft gelatin capsule in healthy human
Format: ADME, organism-based
Set-up: dietary status Fasting, dose 25 mg, dosed compound id 2.46815e+06, dosed compound name Diclofenac potassium, gender Mixed, regimen Single, route oral, study doses 25/50 mg
Conditions: both, plasma
property-name: Tmax (min)
Enter your answer as a number in min; do not include the unit.

Fill in: Tmax of O=C(O)Cc1ccccc1Nc1c(Cl)cccc1Cl is ___ 27

###

Assay: Mean AUC (0-infinity) of diclofenac following single oral dosing of 50 mg diclofenac potassium softgel capsule in healthy human
Type: ADME, organism-based
Design: time infinity, dietary status Fed, dose 50 mg, dosed compound id 2.46815e+06, dosed compound name Diclofenac potassium, gender Mixed, regimen Single, route oral, study doses 25/50 mg
Details: both, plasma, read-out: AUC (0-infinity)
property-name: AUC(0-inf) (ng·h/mL)
Enter your answer as a number in ng·h/mL; do not include the unit.

Fill in: AUC(0-inf) of O=C(O)Cc1ccccc1Nc1c(Cl)cccc1Cl is ___ 1460

###

Assay: Mean maximum Tmax value of diclofenac potassium following oral dosing of Cataflam 50 mf tablet in healthy human
Format: ADME, organism-based
Parameters: dietary status Fasting, dose 50 mg, dosed compound id 2.46815e+06, dosed compound name Diclofenac potassium, gender Mixed, regimen Single, route oral, study doses 50 mg
Conditions: both, plasma, 50 mg, read-out: Maximum Tmax
property-name: Tmax
Don't forget the unit after the number, please.

Fill in: Tmax of O=C(O)Cc1ccccc1Nc1c(Cl)cccc1Cl is ___ 4 h

###

Assay: Mean AUC(0-t) of diclofenac potassium following oral dosing of Cataflam 50 mf tablet in healthy human
Type: ADME, organism-based
Parameters: dietary status Fed, dose 50 mg, dosed compound id 2.46815e+06, dosed compound name Diclofenac potassium, gender Mixed, regimen Single, route oral, study doses 50 mg
Conditions: both, plasma, 50 mg
property-name: AUC(0-t) (ng·h/mL)
Enter your answer as a number in ng·h/mL; do not include the unit.

Fill in: AUC(0-t) of O=C(O)Cc1ccccc1Nc1c(Cl)cccc1Cl [DICLOFENAC] is ___ 1060

###

Assay: Geometric mean for AUC (0-t) of diclofenac following single oral dosing of 50 mg Cataflam tablet in healthy human
Assay type: ADME, organism-based
Design: dietary status Fasting, dose 50 mg, dosed compound id 2.46815e+06, dosed compound name Diclofenac potassium, gender Mixed, regimen Single, route oral
Settings: both, plasma
property-name: AUC(0-t) (ng·h/mL)
Enter your answer as a number in ng·h/mL; do not include the unit.

Fill in: AUC(0-t) of O=C(O)Cc1ccccc1Nc1c(Cl)cccc1Cl is ___ 1290

###

Assay: Mean Cmax of diclofenac potassium following oral dosing of PRO-513 50 mg sachet in healthy human
Type: ADME, organism-based
Design: dietary status Fed, dose 50 mg, dosed compound id 2.46815e+06, dosed compound name Diclofenac potassium, gender Mixed, regimen Single, route oral, study doses 50 mg
Conditions: both, plasma
property-name: Cmax (ng/mL)
Enter your answer as a number in ng/mL; do not include the unit.

Fill in: Cmax of O=C(O)Cc1ccccc1Nc1c(Cl)cccc1Cl is ___ 506

###

Assay: Geometric mean for AUC (0-t) of diclofenac following single oral dosing of 35 mg Zorvolex capsule in healthy human
Format: ADME, organism-based
Parameters: dietary status Fed, dose 35 mg, dosed compound id 2.46815e+06, dosed compound name Diclofenac, gender Mixed, regimen Single, route oral
Details: both, plasma
property-name: AUC(0-t)

Fill in: AUC(0-t) of O=C(O)Cc1ccccc1Nc1c(Cl)cccc1Cl is ___ 837 ng·h/mL

###

Assay: Mean apparent terminal elimination rate constant value of diclofenac following single oral dosing of 18 mg Zorvolex capsule in healthy human
Assay type: ADME, organism-based, Plasma
Set-up: dietary status Fasting, dose 18 mg, dosed compound id 2.46815e+06, dosed compound name Diclofenac, gender Mixed, regimen Single, route oral
Conditions: in vivo
property-name: lambda-z (h⁻¹)
Enter your answer as a number in h⁻¹; do not include the unit.

Fill in: lambda-z of O=C(O)Cc1ccccc1Nc1c(Cl)cccc1Cl is ___ 0.399

###

Experiment: Geometric mean for AUC (0-t) of diclofenac following single oral dosing of 50 mg Cataflam tablet in healthy human
Assay type: ADME, organism-based
Parameters: dietary status Fed, dose 50 mg, dosed compound id 2.46815e+06, dosed compound name Diclofenac potassium, gender Mixed, regimen Single, route oral
Conditions: both, plasma
property-name: AUC(0-t) (ng·h/mL)
Enter your answer as a number in ng·h/mL; do not include the unit.

Fill in: AUC(0-t) of O=C(O)Cc1ccccc1Nc1c(Cl)cccc1Cl is ___ 1150

###

Assay: Median tmax of diclofenac following single oral dosing of 50 mg Cataflam tablet in healthy human
Format: ADME, organism-based
Parameters: dietary status Fasting, dose 50 mg, dosed compound id 2.46815e+06, dosed compound name Diclofenac potassium, gender Mixed, regimen Single, route oral
Settings: both, plasma, read-out: Median Tmax
property-name: Tmax (h)
Enter your answer as a number in h; do not include the unit.

Fill in: Tmax of O=C(O)Cc1ccccc1Nc1c(Cl)cccc1Cl is ___ 1

###

Assay: Mean apparent terminal elimination rate constant value of diclofenac following single oral dosing of 35 mg Zorvolex capsule in healthy human
Assay type: ADME, organism-based, Plasma
Parameters: dietary status Fasting, dose 35 mg, dosed compound id 2.46815e+06, dosed compound name Diclofenac, gender Mixed, regimen Single, route oral
Conditions: in vivo
property-name: lambda-z (h⁻¹)
Enter your answer as a number in h⁻¹; do not include the unit.

Fill in: lambda-z of O=C(O)Cc1ccccc1Nc1c(Cl)cccc1Cl [DICLOFENAC] is ___ 0.349

###

Experiment: Mean AUC (0-infinity) value of diclofenac following single oral dosing of 35 mg Zorvolex capsule in healthy human
Format: ADME, organism-based
Design: time infinity, dietary status Fasting, dose 35 mg, dosed compound id 2.46815e+06, dosed compound name Diclofenac, gender Mixed, regimen Single, route oral
Details: both, plasma, read-out: AUC (0-infinity)
property-name: AUC(0-inf) (ng·h/mL)
Enter your answer as a number in ng·h/mL; do not include the unit.

Fill in: AUC(0-inf) of O=C(O)Cc1ccccc1Nc1c(Cl)cccc1Cl [DICLOFENAC] is ___ 1000

###

Experiment: Mean Kel of diclofenac potassium following oral dosing of PRO-513 50 mg sachet in healthy human
Assay type: ADME, organism-based
Parameters: dietary status Fed, dose 50 mg, dosed compound id 2.46815e+06, dosed compound name Diclofenac potassium, gender Mixed, regimen Single, route oral, study doses 50 mg
Conditions: both, plasma
property-name: k el (s⁻¹)
Enter your answer as a number in s⁻¹; do not include the unit.

Fill in: k el of O=C(O)Cc1ccccc1Nc1c(Cl)cccc1Cl is ___ 0.000108

###

Test: Mean AUC (0-t) of diclofenac following single oral dosing of 50 mg diclofenac potassium softgel capsule in healthy human
Type: ADME, organism-based
Set-up: dietary status Fed, dose 50 mg, dosed compound id 2.46815e+06, dosed compound name Diclofenac potassium, gender Mixed, regimen Single, route oral, study doses 25/50 mg
Details: both, plasma
property-name: AUC(0-t)

Fill in: AUC(0-t) of O=C(O)Cc1ccccc1Nc1c(Cl)cccc1Cl is ___ 1420 ng·h/mL
